The measured values listed here are drawn from ChEMBL document CHEMBL1201862.

# Tested on: OVCAR-8
# run_description: NCI tumour cell line growth inhibition, 48 h
Calls of active or inactive are those of the source. Cut-off read from the data, not from the text of the source: active = GI50 up to about 1.1 µM and inactive = higher.
quantity_measured: GI50

Request: Recall the recorded GI50 for Cc1cn(CCCCCOC(=O)NC(CCCNC(N)=O)C(=O)O)c(=O)[nH]c1=O (stereo not given) with OVCAR-8 and state it.
Result: > 100 µM (inactive)

Request: Recall the recorded GI50 for N/C(S)=N/N=C/c1ccc(N)cn1 with OVCAR-8 and state it.
Result: 3.18 µM (inactive)

Request: Recall the recorded GI50 for CSc1nc(NC2OCC(OC(C)=O)C(OC(C)=O)C2OC(C)=O)c(/N=C(\C)C(C)=O)c(=O)n1C (stereo not given) with OVCAR-8 and state it.
Result: > 100 µM (inactive)

Request: Recall the recorded GI50 for CN(C)CCNS(=O)(=O)N(C)C with OVCAR-8 and state it.
Result: > 100 µM (inactive)

Request: Recall the recorded GI50 for C=C[C@H]1CN2CC[C@H]1C[C@@H]2[C@@H](O)c1ccnc2ccccc12 with OVCAR-8 and state it.
Result: > 100 µM (inactive)

* * *

# Tested on: IGROV-1
# run_description: NCI tumour cell line growth inhibition, 48 h
Calls of active or inactive are those of the source. Rule as the data show it: active = GI50 up to about 1.1 µM and inactive = higher.
Each item that follows carries a reported GI50.

These solved cases illustrate the format of a correct answer.
COc1cc2c3c(c1Oc1nnnn1-c1ccccc1)-c1c(ccc4c1OCO4)C[C@H]3N(C)CC2    41.6 µM (inactive)
CC(=O)C(/N=N\C1CCC(S(=O)(=O)NB2N=CS2)CC1)C(=O)Nc1ccccc1C (stereo not given)    17.4 µM (inactive)
CCc1nc2ccccc2c(=O)n1/N=C(\N=N\c1ccc(Cl)cc1)c1ccccc1    34 µM (inactive)
COC(=O)C1(c2cc3ccccc3n2S(=O)(=O)c2ccccc2)CC2C=CC1NC2 (stereo not given)    1.34 µM (inactive)

Request: Fill in: GI50 of Cc1cn(C2CC(SCCO)C(CO)O2)c(=O)[nH]c1=O (stereo not given) is ___
Result: > 100 µM (inactive)

* * *

# Tested on: NCI/ADR-RES
# run_description: NCI tumour cell line growth inhibition, 48 h
Activity calls are given as the source filed them. No stated cut-off is given here; in the data, active = GI50 up to about 1.1 µM and inactive = higher.
quantity_measured: GI50

These solved cases illustrate the format of a correct answer.
CCN1CCCn2c(=O)[nH]c3cc(Br)cc1c32    > 100 µM (inactive)
COC(=O)/C=C/N1CC1    > 10 µM (inactive)
NCC#CCNCCCN1CC1    > 100 µM (inactive)

Request: Fill in: GI50 of CC(=O)OCC12C(OC(C)=O)C[C@@H](C)C3(CC(c4ccoc4)OC3=O)C1CCC(O)C21CO1 (stereo partly specified) is ___
Result: > 100 µM (inactive)

Request: Fill in: GI50 of Cc1nn(C(=O)c2ccncc2)c2c1C(c1ccc(Cl)cc1)SC(=N)N2 (stereo unspecified) is ___
Result: > 10 µM (inactive)

Request: Fill in: GI50 of Cc1c(O)c(OC2OC(CO)C(O)C(O)C2O)cc2c1C=C[C@@H]1[C@@]2(C)C(=O)C[C@]2(C)[C@@H]([C@@](C)(O)C(=O)CCC(C)(C)O)[C@H](O)C[C@@]12C (stereo partly specified) is ___
Result: 25.5 µM (inactive)

Request: Fill in: GI50 of N=c1oc2ccc([N+](=O)[O-])cc2cc1C(=O)NCc1ccccc1 is ___
Result: 16.5 µM (inactive)

Request: Fill in: GI50 of COC(=O)C1C(C(=O)OC)C1(Br)CBr (stereo unspecified) is ___
Result: > 100 µM (inactive)

Request: Fill in: GI50 of Cc1ccc(CC[PH](=O)CCc2ccc(C)nc2)cn1 is ___
Result: > 100 µM (inactive)

Request: Fill in: GI50 of OCCCc1ccc2c(c1)[C@H](CO)[C@@H](c1ccc(O)cc1)O2 is ___
Result: > 100 µM (inactive)

Request: Fill in: GI50 of CN(C)CCSCCO is ___
Result: > 100 µM (inactive)

* * *

# Test system: SF-539
# run_description: NCI tumour cell line growth inhibition, 48 h
Active and inactive are the calls of the source. Cut-off read from the data, not from the text of the source: active = GI50 up to about 1.1 µM and inactive = higher.
Each item that follows carries a reported GI50.

CCOC(=O)C1(N)CC1    > 100 µM (inactive)
O=C(N/C(=C\c1cccc([N+](=O)[O-])c1)c1nc2cc([N+](=O)[O-])ccc2[nH]1)c1ccccc1    29.4 µM (inactive)
O=c1[nH]c2cc3[nH]c4ncccc4c(=O)c3cc2[nH]1    > 10 µM (inactive)
Cc1c(N2CCN(C)CC2)nc2ccc(Cl)cc2c1-c1ccccc1    17.6 µM (inactive)
COCO[C@@H]1C[C@H]2C(O)Nc3ccccc3C(=O)N2C1 (stereo partly specified)    > 100 µM (inactive)

Here is another molecule to look at.
Request: Fill in: GI50 of O=Cc1cc2c(cc1-c1c(C=O)ccc3c1OCO3)OCO2 is ___
Result: > 10 µM (inactive)

* * *

# Test system: MDA-MB-231
# run_description: NCI tumour cell line growth inhibition, 48 h
The source made the active and inactive calls. Cut-off read from the data, not from the text of the source: active = GI50 up to about 1.1 µM and inactive = higher.
Each item that follows carries a reported GI50.

Cc1cc2c(cc1-c1cc3c(cc1C)C(C(C)C)=C(O)C(=O)/C3=C\Nc1cccc3c(N)cccc13)/C(=C/Nc1cccc3c(N)cccc13)C(=O)C(O)=C2C(C)C    > 100 µM (inactive)
O=C1CCCC2(c3ccccc3)Nc3ccccc3N12 (stereo not given)    > 100 µM (inactive)
CC1(C)N=C(N)N=C(N)N1CCCCc1ccccc1    > 64.9 µM (inactive)
N/C(S)=N/N=C/c1ccc(N)cn1    > 6.79 µM (inactive)

Here is another molecule to look at.
Request: Recall the recorded GI50 for O=C1C(NCCc2ccc(O)c(O)c2)=CC(=O)c2ncccc21 with MDA-MB-231 and state it.
Result: 5.14 µM (inactive)

* * *

Each item that follows carries a reported GI50.
# Tested on: SF-268
# run_description: NCI tumour cell line growth inhibition, 48 h
Calls of active or inactive are those of the source. Rule as the data show it: active = GI50 up to about 1.1 µM and inactive = higher.

These solved cases illustrate the format of a correct answer.
Cc1c(NC(=O)CSC(=S)N2CCN(Cc3ccccc3)CC2)c(=O)n(-c2ccccc2)n1C    > 100 µM (inactive)
Cc1cc(O)c(C(C)C)cc1CN1CCCCC1    > 100 µM (inactive)
C=C(C)/C=C/C(O)[C@](C)(O)[C@H]1[C@H](O)C[C@@]2(C)[C@@H]3CCc4c(cc(OC5OC(CO)C(O)C(O)C5O)c(O)c4C)C3(C)C(=O)C[C@]12C (stereo partly specified)    > 100 µM (inactive)
Cc1ccc2[nH]c3c(c2c1)C1CCC(C(C)(C)C)CC1C1C(=O)N(c2ccc4c(c2)OCO4)C(=O)C31 (stereo unspecified)    2.03 µM (inactive)
CCN(CC)CCNc1ccc([N+](=O)[O-])c2nc3ccc(OC)cc3c(N)c12    1.65 µM (inactive)
CC1(O)CCn2c(=O)c3cc4ccccc4cc3c(=O)n2C1O (stereo unspecified)    > 100 µM (inactive)
OC1OC(c2ccc[nH]2)C(F)(F)C(F)(F)C1(F)F (stereo unspecified)    > 100 µM (inactive)
NN=C1/C(=C\c2ccccc2)CCC/C1=C/c1ccccc1    34.3 µM (inactive)

Request: Fill in: GI50 of O=C1CSC2(CC(/C=C/c3cccc([N+](=O)[O-])c3)=NN2c2cccc(S(=O)(=O)O)c2)N1c1nc2ccccc2s1 (stereo unspecified) is ___
Result: 26 µM (inactive)

Request: Fill in: GI50 of O=S(=O)(/N=S(/Nc1ccccc1)C(F)(F)Cl)c1ccccc1 (stereo unspecified) is ___
Result: > 100 µM (inactive)

Request: Fill in: GI50 of CN(C)CCNS(=O)(=O)N(C)C is ___
Result: > 100 µM (inactive)

Request: Fill in: GI50 of CCCCCC/C=C\CCCCCCCCCc1cccc(O)c1C(=O)O [GINKGOLIC ACID 17:1] is ___
Result: > 100 µM (inactive)

Request: Fill in: GI50 of CCc1cc2c(Nc3ccccc3)c3c(nc2s1)CCCC3 is ___
Result: 76.6 µM (inactive)

Request: Fill in: GI50 of O=S1(=O)C(c2ccccc2)C(N2CCCCC2)C1C1CC2c3ccccc3C1c1ccccc12 (stereo unspecified) is ___
Result: > 100 µM (inactive)

Request: Fill in: GI50 of CC(=O)/C=C\C1CC2C=CC1C2 (stereo unspecified) is ___
Result: 25.8 µM (inactive)

Request: Fill in: GI50 of Cc1ccc(NC(=O)CC(=O)n2nc(-c3ccccc3)c(/N=N\c3ccccc3[N+](=O)[O-])c2-c2ccccc2)cc1 is ___
Result: 51.2 µM (inactive)

* * *

# System: LOX IMVI
# run_description: NCI tumour cell line growth inhibition, 48 h
Calls of active or inactive are those of the source. Cut-off read from the data, not from the text of the source: active = GI50 up to about 1.1 µM and inactive = higher.
In this exercise, the only acceptable responses are active, inactive

Please review the entries below; each comes with its answer.
CCC12CCCN(Cc3ccccc3)C1c1c(n(C)c3ccccc13)C(C(=O)OC)C2 (stereo unspecified)    inactive
COc1cc2ccc3c4cc(OC)c(OC(C)C)cc4c[n+](C)c3c2cc1OC    inactive
Cc1c(NC(=O)CSC(=S)N2CCN(Cc3ccccc3)CC2)c(=O)n(-c2ccccc2)n1C    inactive

Let's switch to this molecule now.
Request: Please state the recorded outcome for this molecule: COc1cc(/C=C2\N=C(c3ccccc3)N(c3nc4ccccc4s3)C2=O)cc(OC)c1OC
Result: inactive
